Target: TRPM8 (Rattus norvegicus, UniProt Q8R455)
Sequence (Q8R455 whole entry): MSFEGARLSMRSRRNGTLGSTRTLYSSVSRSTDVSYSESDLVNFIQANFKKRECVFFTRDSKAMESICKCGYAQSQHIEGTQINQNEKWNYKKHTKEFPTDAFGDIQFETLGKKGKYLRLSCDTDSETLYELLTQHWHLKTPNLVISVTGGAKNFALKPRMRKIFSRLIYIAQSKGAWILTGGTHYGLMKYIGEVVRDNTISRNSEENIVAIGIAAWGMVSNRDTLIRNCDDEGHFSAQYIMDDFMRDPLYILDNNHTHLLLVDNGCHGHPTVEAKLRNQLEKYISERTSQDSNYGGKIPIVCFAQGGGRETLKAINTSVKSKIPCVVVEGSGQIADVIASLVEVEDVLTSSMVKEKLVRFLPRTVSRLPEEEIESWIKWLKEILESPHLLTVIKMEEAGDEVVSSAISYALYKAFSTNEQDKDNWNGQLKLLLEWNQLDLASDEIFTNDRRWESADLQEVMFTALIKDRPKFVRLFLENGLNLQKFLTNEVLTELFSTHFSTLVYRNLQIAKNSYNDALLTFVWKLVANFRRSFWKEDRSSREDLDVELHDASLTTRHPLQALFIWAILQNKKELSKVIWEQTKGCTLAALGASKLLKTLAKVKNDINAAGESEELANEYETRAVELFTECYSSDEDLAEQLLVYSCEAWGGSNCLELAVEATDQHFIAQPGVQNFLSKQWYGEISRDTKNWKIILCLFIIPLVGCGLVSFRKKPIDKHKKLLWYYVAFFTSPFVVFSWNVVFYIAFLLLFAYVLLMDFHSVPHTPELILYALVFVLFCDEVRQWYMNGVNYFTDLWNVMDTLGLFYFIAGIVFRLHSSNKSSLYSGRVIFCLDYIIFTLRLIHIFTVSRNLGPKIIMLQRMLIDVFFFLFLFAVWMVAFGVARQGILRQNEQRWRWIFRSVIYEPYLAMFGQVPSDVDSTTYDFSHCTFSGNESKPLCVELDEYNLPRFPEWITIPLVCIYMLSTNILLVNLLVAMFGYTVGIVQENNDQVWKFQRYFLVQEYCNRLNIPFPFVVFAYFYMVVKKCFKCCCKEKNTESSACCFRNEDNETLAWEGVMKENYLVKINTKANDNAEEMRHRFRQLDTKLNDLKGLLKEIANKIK
Assay: Confirmation test of inhibitory effects on icilin-induced wet-dog shakes
Assay type: in vivo, female SD rats
Set-up: test compounds were orally administered to female SD rats; from tissue; host or cells: whole animal (female SD rats), endogenous channel
Conditions: dose 3 mg/kg orally, icilin 1 mg/kg i.p. after 1 hour, shakes counted for 5 minutes
attributeMeasured: % inhibition of Wet-Dog Shake (%)

* NC(=O)[C@@H](c1cncc(F)c1)N(C(=O)c1ccccc1O)[C@@H]1CCc2c(F)cc(Cl)cc21 [Example 19-31LP] | 71
* Cc1ncsc1C(=O)N([C@@H]1CCc2c(F)cc(F)cc21)[C@@H](C(N)=O)c1ccccc1 [Example 2-132LP] | 49
* COc1ccccc1C(=O)N([C@@H]1CCc2c(F)cc(Cl)cc21)[C@@H](C(N)=O)c1cccnc1 [Example 2-118LP] | 62
* COc1ncccc1C(=O)N([C@@H]1CCc2c(F)cc(Cl)cc21)[C@@H](C(N)=O)c1cccnc1 [Example 2-180LP] | 32
* COc1ncccc1C(=O)N([C@@H]1CCc2c(F)cc(Cl)cc21)[C@@H](C(N)=O)c1ccccc1 [Example 11] | 100
* CSc1ncccc1C(=O)N([C@@H]1CCc2ccc(Cl)cc21)[C@@H](C(N)=O)c1ccccc1 [Example 2-125LP] | 37
* NC(=O)[C@@H](c1ccccc1)N(C(=O)c1ccccc1)[C@@H]1COc2c(F)cc(Cl)cc21 (racemic) [Example 2-252M] | 31
* NC(=O)[C@@H](c1cccnc1)N(C(=O)c1ccccc1Cl)[C@@H]1CCc2c(F)cc(Cl)cc21 [Example 2-97LP] | 35
* COc1ncccc1C(=O)N([C@@H]1CCc2c(F)cc(F)cc21)[C@@H](C(N)=O)c1ccccc1 [Example 2-36LP] | 74
* Cc1ncccc1C(=O)N([C@@H]1CCc2c(F)cc(Cl)cc21)[C@@H](C(N)=O)c1cccc(O)c1 [Example 2-168LP] | 36
* Cn1nccc1C(=O)N([C@@H]1CCc2c(F)cc(Cl)cc21)[C@@H](C(N)=O)c1ccccc1 [Example 2-133LP] | 55
* Cc1ncsc1C(=O)N([C@@H]1CCc2ccc(Cl)cc21)[C@@H](C(N)=O)c1ccccc1 [Example 2-88LP] | 46
* Cc1cccc(C(=O)N([C@@H]2CCc3c(F)cc(Cl)cc32)[C@@H](C(N)=O)c2ccccc2)c1O [Example 4-9] | 36
* Cc1ccncc1C(=O)N([C@@H]1CCc2c(F)cc(Cl)cc21)[C@@H](C(N)=O)c1ccccc1 [Example 2-100LP] | 47
* COc1ccccc1C(=O)N([C@@H]1CCc2c(F)cc(Cl)cc21)[C@@H](C(N)=O)c1ccccc1 [Example 2-89LP] | 100
* NC(=O)[C@@H](c1ccccc1)N(C(=O)c1cccnc1N)[C@@H]1CCc2c(F)cc(Cl)cc21 [Example 13] | 93
* Cc1cnoc1C(=O)N([C@@H]1CCc2c(F)cc(Cl)cc21)[C@@H](C(N)=O)c1ccccc1 [Example 2-150LP] | 49
* COc1ncccc1C(=O)N([C@@H]1CCc2ccc(Cl)cc21)[C@@H](C(N)=O)c1ccccc1 [Example 2-46LP] | 79
* Cc1cccnc1C(=O)N([C@@H]1CCc2c(F)cc(Cl)cc21)[C@@H](C(N)=O)c1ccccc1 [Example 2-152LP] | 44
* NC(=O)[C@@H](c1ccccc1)N(C(=O)c1cccnc1Cl)[C@@H]1CCc2c(F)cc(Cl)cc21 [Example 2-93LP] | 100
* NC(=O)[C@@H](c1ccccc1)N(C(=O)c1cccc2c1OCO2)[C@@H]1CCc2c(F)cc(Cl)cc21 [Example 2-173LP] | 99
* NC(=O)[C@@H](c1cccnc1)N(C(=O)c1cccc2c1OCO2)[C@@H]1CCc2c(F)cc(Cl)cc21 [Example 2-172LP] | 43
* Cc1ncncc1C(=O)N([C@@H]1CCc2c(F)cc(Cl)cc21)[C@@H](C(N)=O)c1ccccc1 [Example 2-154LP] | 36

Origin of values: patent US9458092B2
